As an illustration, consider measured BpMetAP1 inhibition potency (in words) for molecules on BpMetAP1 (Burkholderia pseudomallei, UniProt Q63T11).
Sequence (Q63T11 1-271): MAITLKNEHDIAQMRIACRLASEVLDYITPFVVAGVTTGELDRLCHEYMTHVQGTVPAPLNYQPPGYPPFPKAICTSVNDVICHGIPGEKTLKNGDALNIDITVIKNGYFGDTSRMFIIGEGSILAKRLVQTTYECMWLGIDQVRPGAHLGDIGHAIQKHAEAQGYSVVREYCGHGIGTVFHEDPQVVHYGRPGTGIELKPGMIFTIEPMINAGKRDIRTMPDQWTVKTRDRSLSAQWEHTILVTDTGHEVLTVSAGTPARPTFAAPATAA

| testSmiles | BpMetAP1 inhibition potency (in words) |
| --- | --- |
| Nc1nnc(SCc2ccc(Cl)cc2Cl)[nH]1 | low micromolar range |
| O=[N+]([O-])c1cc(CN2CCCCC2)c(O)c2ncccc12 | decreased potency |
| Nc1nnc(SCc2ccc(F)cc2)[nH]1 | low micromolar range |
| O=[N+]([O-])c1cc(CN2CCSCC2)c(O)c2ncccc12 | decreased potency |
